The measured values listed here are drawn from paper PMC10397247.

- TARGET ENTITY: T1, P9mSN
- T1 chain: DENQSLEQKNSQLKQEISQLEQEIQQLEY
- ASSAY COMMENT: two-hybrid library CCNG1;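 further: natural log of median RNA to DNA barcode read ratio; higher means stronger binding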
Listed binders paired with reported interaction score
METRIC: interaction score

>>> reported_value("DKIEELKEKNSQLKEKNEELKQKIYELKE [P2mSN]")
-1.13
>>> reported_value("DKISELKEENQQLEQKIQQLKEENSQLEY [P8mSN]")
-1.04
>>> reported_value("DENQSLEQEISQLEQEIQQLEQKNSELKY [P11mSN]")
-1.27
>>> reported_value("DKNSQLKEENSQLEEKIEQLKEKIQELKY [P10mSN]")
0.647
>>> reported_value("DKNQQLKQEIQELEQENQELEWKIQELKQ [P6A-bN]")
-0.239
>>> reported_value("DENQSLEQKNSQLKQEISQLEQEIQQLEY [P9mSN]")
-1.56
>>> reported_value("DKISQLKEKIQQLKQENQQLEEENSQLEY [P4mSN]")
-1.07
>>> reported_value("DEIQQLEEEISQLEQKNSELKEKNQELKY [P3mSN]")
-0.0425
